Dear all, this message contains MIC results, target or system S. faecalis.

| compound | MIC (µg/mL) |
| --- | --- |
| CC(=O)Oc1ccc(-c2c(C(N)=O)c(N)n(N)c(=O)c2C#N)cc1 [Compound 3e] | 31.3 |
| CC1(C)S[C@@H]2[C@H](NC(=O)Cc3ccccc3)C(=O)N2[C@H]1C(=O)O [Pen. G, Penicillin G, reference compound] | 31.5 |
| N#Cc1c(-c2ccc(OCc3ccccc3)cc2)c(C(N)=O)c(N)n(N)c1=O [Compound 3d] | 15.6 |
| CN(C)c1ccc(-c2c(C(N)=O)c(N)n(N)c(=O)c2C#N)cc1 [Compound 3c] | 62.5 |
| N#Cc1c(-c2ccc(OCc3ccccc3)cc2)c(C(N)=S)c(N)n(N)c1=O [Compound 4d] | 31.3 |
